From: PubChem BioAssay AID1159580

// reported normalized growth per item
- EXPERIMENT DESCRIPTION: chemical genetic growth profiling, strain panel (AID 1159580);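 note: tested at 20 µM; growth read once vehicle control cultures reached saturation at 30 °C; 1 = growth at the plate median or of vehicle wells; lower values mean less growth of the strain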
- RUN PARAMETERS: S. cerevisiae deletion strains, growth OD, locus YHR030C, strain SLT2, active compounds read low
Screen size: about 5,500 compounds; about 2,000 (36%) were called active. About 18% were inconclusive and are not listed. The list shows a part of the results.
MEASURED METRIC: normalized growth

1. N#C/C(=N/Nc1ccc(F)cc1)C(=O)c1ccccc1 : 0.704
2. Cc1onc(-c2c(Cl)cccc2Cl)c1-c1nc(-c2ccc3c(c2)OCCO3)cs1 : 0.998
3. C/C(=C\C(=O)Nc1ccc(F)cc1)Nc1ccc(F)cc1 : 1.02
4. CN1C2C[C@H](OC(=O)[C@H](CO)c3ccccc3)C[C@H]1[C@@H](O)C2 : 1.01

* * *

- EXPERIMENT DESCRIPTION: chemical genetic growth profiling, strain panel (AID 1159580);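 note: tested at 20 µM; growth read once vehicle control cultures reached saturation at 30 °C; 1 = growth at the plate median or of vehicle wells; lower values mean less growth of the strain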
- RUN PARAMETERS: S. cerevisiae deletion strains, growth OD, locus YLR357W, strain rsc2, active compounds read low
Among all 5,500 compounds or so, about 2,000 (36%) were called active. Another 18% or so got no clear call; they are omitted. The list shows a part of the results.
Assign labels as follows, please: label 1 for normalized growth below 1; label 0 for normalized growth equal to or exceeding 1.

1) COc1ccc(CN(CCN(C)C)c2ccccn2)cc1 : label 0
2) CN(C)CCN(Cc1ccccc1)c1ccccn1 : label 0
3) CCCc1cc(C(N)=S)ccn1 : label 1
4) NCCCS(=O)(=O)O : label 0
5) CN1C2CCC1CC(OC(c1ccccc1)c1ccccc1)C2 (stereo not drawn) : label 1
6) CCn1cc(C(=O)O)c(=O)c2cc(F)c(N3CCNCC3)nc21 : label 1

* * *

- EXPERIMENT DESCRIPTION: chemical genetic growth profiling, strain panel (AID 1159580);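 note: tested at 20 µM; growth read once vehicle control cultures reached saturation at 30 °C; 1 = growth at the plate median or of vehicle wells; lower values mean less growth of the strain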
- RUN PARAMETERS: S. cerevisiae deletion strains, growth OD, locus YEL061C, strain CIN8, active compounds read low
About 2,000 (36%) of roughly 5,500 compounds were called active. Inconclusive results (about 18%) are left out. The list shows a part of the results.
MEASURED METRIC: normalized growth

1. O=[N+]([O-])c1ccc(S(=O)(=O)N2CCCCC2)cc1 : 0.978
2. CCn1cc(C(=O)O)c(=O)c2cc(F)c(N3CCNCC3)nc21 : 1.01
3. COc1ccc(C(c2ccc(OC)cc2)C(Cl)(Cl)Cl)cc1 : 0.995
4. CN1CC(=O)N=C1N : 1.01
5. CC1(C)CCC[C@@]2(C)C1[C@@H](O)C[C@]1(C)C2CC[C@@H]2[C@@]3(C)CC[C@H](C(C)(C)O)[C@@H]3CC[C@@]21C (stereo partly drawn) : 1
6. O=C(OCC(O)CO)c1ccccc1Nc1ccnc2cc(Cl)ccc12 (stereo not drawn) : 0.997
7. CCC(C)C(=O)O[C@@H]1C[C@@]2(C)[C@H](c3ccoc3)OC(=O)CC23OC2(C)O[C@]14[C@]1(C)[C@@H](CC(=O)OC)C5(C)CC1(O)[C@](O)(C5OC(=O)C1(C)OC1C)[C@@H](OC(C)=O)[C@]34O2 (stereo partly drawn) : 1
8. COC(=O)[C@@H]1OC(=O)C2OC23[C@@]1(C)CCC1[C@]2(C)C(C[C@H](O)[C@]13C)C(C)(C)[C@H](OC(C)=O)C[C@@H]2OC(C)=O (stereo partly drawn) : 1.01
9. Cc1ccccc1C(OCCN(C)C)c1ccccc1 (stereo not drawn) : 1
10. O=C(O)c1cncc(C#Cc2ccccc2)c1 : 1
11. N[C@@H](Cc1ccc(N(CCCl)CCCl)cc1)C(=O)O : 0.982
12. OCC(O)CN1CCN(c2ccccc2)CC1 (stereo not drawn) : 1
13. COC(=O)CC1C2(C)CC34OC5(C)OC6(C7/C(=C(/O)C(C)C)C(=O)OC(c8ccoc8)C7(C)C(OC(=O)C(C)C)C(OC)C6(O5)C13C)C(OC)C4(OC)C2OC(C)=O (stereo not drawn) : 0.994
14. CCC(C)C(=O)OC1CC2(C)C(c3ccoc3)OC(=O)CC23OC2(C)OC34C(OC(=O)C(C)C)C3(O)C(OC(=O)C5(C)OC5C)C5(C)CC3(O)C(C)(C5C(=O)OC)C14O2 (stereo not drawn) : 1.01
15. CCCOc1ccccc1/C=N\NC(=S)Nc1cccc(F)c1 : 1
16. C=C[C@@](C)(O)CCC1C(=C)CCC2[C@@](C)(CO)CCC[C@]12C (stereo partly drawn) : 1.07
17. O=[N+]([O-])c1cc(C(F)(F)F)c(N2CCCCC2)cc1N1CCCCC1 : 0.967
18. COc1c(N2CCNC(C)C2)c(F)cc2c(=O)c(C(=O)O)cn(C3CC3)c12 (stereo not drawn) : 1.01
19. C[C@]12CCC(=O)C=C1C=CC1C2CC[C@@]2(C)C1CC[C@@]2(O)CCC(=O)O (stereo partly drawn) : 0.999
20. C[C@]12CCC(=O)C=C1C=CC1C2CC[C@@]2(C)C1CC[C@@]21CCC(=O)O1 (stereo partly drawn) : 0.978
21. CSc1c(-c2ccccc2)c(N)nn1S(=O)(=O)c1ccccc1 : 0.967
22. NS(=O)(=O)c1cc2c(cc1Cl)NC=NS2(=O)=O : 1
23. CN(C)CCN(Cc1cccs1)c1ccccn1 : 1
24. C/C=C(\C)C(=O)O[C@H]1C[C@@H](OC(C)=O)[C@@]2(C(=O)OC)CO[C@@H]3C2[C@]12CO[C@](O)(C(=O)OC)[C@H]2[C@](C)(C12O[C@@]1(C)[C@H]1C[C@@H]2OC2OC=C[C@@]21O)[C@@H]3O (stereo partly drawn) : 0.995
25. C=C1CCC2[C@](C)(CO)[C@H](O)CC[C@@]2(C)[C@@H]1C/C=C1/C(=O)OC[C@H]1O (stereo partly drawn) : 1.01
26. CCOC(=O)CNc1ccc(F)cc1 : 1.01
27. Cn1c2c(c(=O)n(C)c1=O)CN(CCCCCCO)CN2 : 1.01
28. O=C(CSc1ccc(Cl)cc1)Nc1ccc(F)cc1 : 0.942

* * *

- EXPERIMENT DESCRIPTION: chemical genetic growth profiling, strain panel (AID 1159580);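 note: tested at 20 µM; growth read once vehicle control cultures reached saturation at 30 °C; 1 = growth at the plate median or of vehicle wells; lower values mean less growth of the strain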
- RUN PARAMETERS: S. cerevisiae deletion strains, growth OD, locus YOR231W, strain MKK1
Screen size: about 5,500 compounds; about 2,000 (36%) were called active. About 18% were inconclusive and are not listed. Rule as the data show it: active = normalized growth mostly below about 0.91 (no sharp cut-off); inconclusive = no clear call, values can overlap the other calls; inactive = mostly above about 0.92. Some of the results follow.
Outcome codes: active, inactive

1. C=C[C@@](C)(O)CCC1C(=C)CCC2[C@@](C)(CO)CCC[C@]12C (some centres undefined) : active
2. COc1ccc(CN(CCN(C)C)c2ccccn2)cc1 : inactive
3. NS(=O)(=O)c1cc2c(cc1Cl)NC=NS2(=O)=O : inactive
4. C=CCc1ccc(OC)cc1 : inactive
5. c1ccc2c(c1)CCCC2C1=NCCN1 (centres undefined) : inactive
6. C=CCc1ccc(OC(=O)c2ccccc2)c(OC)c1 : inactive
7. Cc1nn(C)c(C(=O)Sc2ccc(OC(F)(F)F)cc2)c1[N+](=O)[O-] : inactive
8. COc1cc(CNC(=O)CCCC/C=C/C(C)C)ccc1O : inactive
9. COc1ccc2c(=O)c(-c3ccc(O)cc3)coc2c1 : inactive
10. O=C(O[C@@H]1Cc2c(O)cc(O)cc2O[C@@H]1c1ccc(O)c(O)c1)c1cc(O)c(O)c(O)c1 : inactive
11. O=C(O[C@@H]1Cc2c(O)cc(O)cc2O[C@@H]1c1cc(O)c(O)c(O)c1)c1cc(O)c(O)c(O)c1 : inactive
12. COC(=O)/C=C/C(C)=C/C=C/C(C)=C/C=C/C=C(C)/C=C/C=C(C)/C=C/C(=O)O : inactive
13. COc1ccc(OC)c(C(O)CNC(=O)CN)c1 (centres undefined) : inactive
14. CC(=O)c1ccc(Cl)c(NS(=O)(=O)c2cc(Cl)c(Cl)cc2Cl)c1 : inactive
15. N#C/C(=N/Nc1ccccc1)C(=O)c1ccccc1OC(F)(F)F : inactive
16. C=C[C@@](C)(O)CCC1C(=C)C[C@H](OC(C)=O)C2C(C)(C)CCCC12C (some centres undefined) : inactive
17. CC(=O)Oc1cc(OC(C)=O)c2c(c1)O[C@H](c1ccc(OC(C)=O)c(OC(C)=O)c1)[C@H](OC(C)=O)C2 : inactive
18. CCOC(=O)n1ccn(C)c1=S : inactive
19. CC(C)NCC(O)COc1cccc2[nH]ccc12 (centres undefined) : inactive
20. CC(=O)/C(C#N)=N\Nc1ccc(F)cc1 : active
21. O=C(NC(=O)c1ccccc1Cl)Nc1ccc(OC(F)(F)F)cc1 : inactive
22. COc1ccc2c(c1)OC/C(=C\c1ccc(OC)c(O)c1)C2=O : inactive
23. O=C(Oc1cccc2[nH]ccc12)c1ccc(C(F)(F)F)cc1 : inactive
24. CN(C)CCN(Cc1ccccc1)c1ccccn1 : inactive
